pIC50: −log10 of the molar value.
# collection of pIC50 values tested on UniProtKB P19821
# Sequence (P19821 whole entry): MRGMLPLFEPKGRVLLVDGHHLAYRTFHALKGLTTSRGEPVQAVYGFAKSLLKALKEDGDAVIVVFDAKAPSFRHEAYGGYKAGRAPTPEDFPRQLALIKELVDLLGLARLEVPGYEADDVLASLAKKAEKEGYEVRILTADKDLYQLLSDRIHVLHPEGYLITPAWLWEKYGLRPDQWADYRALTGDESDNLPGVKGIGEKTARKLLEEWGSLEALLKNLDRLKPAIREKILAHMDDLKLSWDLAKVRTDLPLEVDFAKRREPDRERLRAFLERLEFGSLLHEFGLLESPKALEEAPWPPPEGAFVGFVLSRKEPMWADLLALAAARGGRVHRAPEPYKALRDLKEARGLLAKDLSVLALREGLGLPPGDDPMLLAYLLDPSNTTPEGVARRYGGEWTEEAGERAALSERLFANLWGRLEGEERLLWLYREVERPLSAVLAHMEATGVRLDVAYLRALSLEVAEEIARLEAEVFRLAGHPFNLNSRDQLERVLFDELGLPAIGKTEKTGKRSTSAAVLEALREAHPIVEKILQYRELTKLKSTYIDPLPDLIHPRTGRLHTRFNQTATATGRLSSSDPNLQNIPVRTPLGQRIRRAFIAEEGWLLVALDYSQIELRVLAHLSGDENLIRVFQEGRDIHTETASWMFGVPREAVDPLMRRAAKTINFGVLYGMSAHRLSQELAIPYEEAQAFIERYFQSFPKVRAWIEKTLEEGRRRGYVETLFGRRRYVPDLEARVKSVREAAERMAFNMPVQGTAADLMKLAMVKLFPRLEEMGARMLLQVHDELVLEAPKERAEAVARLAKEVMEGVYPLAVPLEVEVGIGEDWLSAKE
RECORDED_METRIC: pIC50

{"STRUCTURE_NOTATION": "O=c1cc(CCl)c2ccc(O)c(O)c2o1", "TARGET_SYSTEM": "UniProtKB P19821", "pIC50": 3.85}
{"STRUCTURE_NOTATION": "CC(=O)SCc1cc(=O)oc2ccc(O)cc12", "TARGET_SYSTEM": "UniProtKB P19821", "pIC50": 3.73}

1. CC(=O)SCc1cc(=O)oc2cc(O)ccc12
2. CC(=O)Oc1ccc2c(CSC(C)=O)cc(=O)oc2c1
3. O=c1cc(CCl)c2c(O)cc(O)cc2o1
Order the items by recorded pIC50; the first position goes to the largest value. Answer by listing the labels in the requested order. 3, 2, 1
